assay: Components of the Cytosolic LPS Sensing Pathway: Gene Identification via Genome-wide siRNA Screen; details: RAW264.7 macrophages, IL-1a HTRF, actives lie on both sides, screened at 100 nM (by protocol), cells primed 5 h with Pam3CSK4 first;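 also: robust z of the log signal after scaling to non-targeting control siRNA wells of the plate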
Hit rate of the full screen: of about 53,000 sequences, about 3,700 (7%) were called active.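 The calls were made as follows: active = gene knockdowns whose robust z-score for IL-1 alpha signal is at least 2 or at most -2, so actives lie on both sides; inactive = the rest.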 Many of the other results were omitted from the sample, so actives are more common in it than they were.
I would appreciate it if you answered using one of these outcomes: 1 (active), 0 (inactive)

Hi team, can someone confirm the assay call for GGCUAUACCUUUGACUAUGTT against Csnk1g1 ? 0

Record request — test call for GGUUUGUAGAGGCAUCAAGTT against Snph 0

For GGCUAUGGCUUUUGUAUGUTT against Arpin , what call appears in the results of this test? 0

Would you mind telling me which call this test gave GGUGUCAACUUUAUUCUUUTT against Rab1a ? 0

I'd appreciate the recorded outcome for GCUGUUACCCUUAUGCAGCTT against Supt7l from this test. 0

// outcome(item) with item = GCUAUGUGGGUUGUGCUAUTT against Olfr1361 0

Which result was noted for this sequence in the test: GCAUACCUAUUCACGUACGTT against Slc7a4 0

What is the recorded call for this sequence in the test? GCCUGAGAAGAUAGACUGATT against Pigs 0

Write down the call the test reported for this sequence. Item: CCUUACCCUGUUAUACAAGTT against Hirip3 1

Short answer needed: outcome of this test for GGACCCUUAGGAAAUGUGCTT against S100a10 ? 0

Which outcome was assigned to GGUUAAAUCCCUGAUGUAUTT against Ptdss1 in this test? 0

I would be grateful if you could indicate the recorded call for GCGCGAUUCAGAGGUUUCATT against Raver2 . 0

// return assay outcome for CCUAUGCUUUUUUGUAAGATT against Il13ra2 0

Lab log entry: GCUCAUUCCAGGUAUCUGATT against Fcna — outcome as called in the assay? 0

What call does the record list for GGCUUUCCUUCGGAAGAAUTT against Abca14 ? 0

Short answer needed: outcome of this test for GGAACAAGAGAAUGAUGAATT against Col5a2 ? 0

Short answer needed: outcome of this test for GGUCUGUGAAAUGAAAAAUTT against Brix1 ? 0

For GGAGCCCAAAAAGAAGAAATT against Mrpl48 , which call appears in the assay record? 0

Called result for CGGAGUCUUCUUCUCACCUTT against A630001O12Rik 1

GET /call?item= GCCGAUAGCAUAGACAGUGTT against Kansl2 returns the recorded outcome of this test. 0

What did the test return for GGAUGAUAUCGGAGCCUGCTT against Clec4g ? 0

What did the test return for GGAGAAUAUUCUCUGUGGATT against Rab11fip5 ? 1

Tell me the recorded outcome of this test for GGAGAGAAAGAAUUUCAUCTT against Chordc1 . 0

How was GGAGAACAUGGAGACUAUUTT against Ramp1 classified in this test? 0

Call for entry CCUUAAGGAACUAGGAUUCTT against Lgr5 : 0

Entry GGACUAGCAAGCUCUUCAGTT against Fancd2 : call = ? 0

# fetch the recorded call for GGAAAAAAGCCUCAUCGGATT against Wdr63 here 0

How was CCAUCAGUAUUCACAACAATT against Usp42 classified in this test? 1

How was CGUGGUAGUGAAAAUUGAGTT against Xbp1 classified in this test? 0

What was the test verdict on CCAAGGAGCAUUCUUUGGUTT against 1700024B05Rik ? 0

Test call for this sequence, please: GGAGACUGGAGAGCAAAAUTT against Krt18 0

Which result was noted for this sequence in the test: GGACCAGUUACUUUAACAUTT against Pkdrej 0

Assay outcome for GGGUAGCUACGAAGAGGAATT against Ros1 : what was it? 0

Per the records of this test, what outcome belongs to GGUCUUCGAAACACAGCUGTT against Exoc3l2 ? 0

Which result was noted for this sequence in the test: GGAGACACUCGUCCUUUAUTT against Cyp20a1 0

Identify the outcome logged in this assay for the sequence shown: GCCUUGGAUAAACCAGACGTT against Mfsd4a 1

Can you look up the reported call for GGCUCUGCUAUUUCUCCUGTT against Olfr17 for me? 0

So what was the verdict on GGCUAAGAAACUGAAGAGATT against Ccm2l in this test? 0

Outcome? GUUUCUUCCAAACUCCAUCTT against Olfr487 0

Status in this test for GCUACUCUUUGUCUCAUGUTT against Hexb ? 0

Can you look up the reported call for GGUGGACUUGUACCUCUUCTT against Tnks for me? 0

What did this assay record as the result for GCCUCUAUCUGUACUCUGGTT against Pdk2 ? 0

Record request — test call for CCUUCCUCGUGAUUCGCUATT against Lman2l 0

Which result was noted for this sequence in the test: CCAGAGUUCUGGGAUUCCATT against Cyp2c66 0

Which outcome was assigned to GGUGCAGAGAAGUGUAACATT against Slc25a21 in this test? 0

Write down the call the test reported for this sequence. Item: GGCAAUACGUAACAUGCCATT against Slc6a4 0

Dear colleague, could you share the recorded outcome for GCAACAAUAUUGCUCUAGATT against Galntl6 when you have a moment? 0

Hi team, can someone confirm the assay call for GGUGUUAUCAGAAUUCAGATT against Cars ? 1

Check the results log: what was the call for GCUGAUCAAAUUGGCCUGUTT against Olfr984 ? 0

Could you please tell me the result logged for GGAUCUCUGGGUCUGAAAATT against Ccz1 in this assay? 0
